Test system: Yersinia pseudotuberculosis
measurement_notes: growth AUC normalised to DMSO control (fraction of control); higher = less growth inhibition, active = hit call of the paper
condition_set: 20 µM
Structures can show the parent of a compound that is named as a salt.
Measured growth AUC normalised to DMSO control accompanies every entry in the list below.

>  <compound>
CNC(=C[N+](=O)[O-])NCCSCc1csc(CN(C)C)n1

>  <growth AUC normalised to DMSO control>
1

$$$$
>  <compound>
CC(C(=O)O)c1cccc(Oc2ccccc2)c1 (centres undefined) [Fenoprofen calcium salt dihydrate]

>  <growth AUC normalised to DMSO control>
0.987

$$$$
>  <compound>
CC(C)(Oc1ccc(Cl)cc1)C(=O)O

>  <growth AUC normalised to DMSO control>
0.996

$$$$
>  <compound>
C(=C\c1ccccc1)/CN1CCN(C(c2ccccc2)c2ccccc2)CC1

>  <growth AUC normalised to DMSO control>
0.976

$$$$
